- subject-of-test: Corticotropin-releasing factor receptor 2/Corticotropin-releasing factor-binding protein (Homo sapiens, UniProt P24387+Q13324)
- Sequence (Q13324 whole entry): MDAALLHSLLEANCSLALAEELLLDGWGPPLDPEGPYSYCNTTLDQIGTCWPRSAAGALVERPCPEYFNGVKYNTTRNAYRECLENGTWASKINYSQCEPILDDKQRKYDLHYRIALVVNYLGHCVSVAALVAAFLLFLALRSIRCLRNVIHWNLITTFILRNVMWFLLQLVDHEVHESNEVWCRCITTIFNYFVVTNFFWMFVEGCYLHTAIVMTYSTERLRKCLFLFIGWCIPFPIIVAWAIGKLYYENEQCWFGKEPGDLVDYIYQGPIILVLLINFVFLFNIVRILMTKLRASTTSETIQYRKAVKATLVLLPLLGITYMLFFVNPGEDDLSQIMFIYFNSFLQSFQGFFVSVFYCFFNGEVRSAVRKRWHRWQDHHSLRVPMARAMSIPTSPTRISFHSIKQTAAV
- Sequence (P24387 whole entry): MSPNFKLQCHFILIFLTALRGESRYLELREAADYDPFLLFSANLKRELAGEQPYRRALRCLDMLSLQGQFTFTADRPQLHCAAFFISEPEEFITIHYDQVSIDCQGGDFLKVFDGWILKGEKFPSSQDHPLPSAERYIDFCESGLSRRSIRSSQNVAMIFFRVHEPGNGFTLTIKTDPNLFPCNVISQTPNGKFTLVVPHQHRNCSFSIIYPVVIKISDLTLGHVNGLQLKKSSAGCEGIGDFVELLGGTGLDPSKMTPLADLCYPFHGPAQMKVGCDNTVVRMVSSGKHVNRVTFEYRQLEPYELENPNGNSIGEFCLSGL
- assay-method-text: activators of CRF receptor 2 with binding protein – uHTS hits, confirmation (AID 602473)
- Type: functional
- run-parameters: read-out: EC50_Mean
Active and inactive are the calls of the source. No stated cut-off is given here; in the data, actives have a measured EC50 and inactives only a lower limit.
Please reply with one of these outcomes: active, inactive

Here are 7 compounds together with their reported answers.
{"compound": "Cc1ccc(SCc2cc(=O)[nH]c(SCC(=O)Nc3cc(Cl)ccc3Cl)n2)cc1", "assigned-category": "inactive"}
{"compound": "CC1(C)C(=O)OC(c2cccn2-c2ccc([N+](=O)[O-])cc2)C2(CCCCC2)C1=O (stereo not drawn)", "assigned-category": "active"}
{"compound": "CC(C)N1C(=O)S/C(=C/c2ccccc2OCc2ccc(C(=O)O)cc2)C1=O", "assigned-category": "inactive"}
{"compound": "Cc1onc(-c2c(F)cccc2Cl)c1C(=O)N1CCN(c2ncc(Br)cn2)CC1", "assigned-category": "inactive"}
{"compound": "N#C/C(=C(/O)c1cccc(F)c1)c1nc2ccccc2s1", "assigned-category": "inactive"}
{"compound": "Cc1ccc(N2C(=O)CC(=O)NC2=O)c(C)c1", "assigned-category": "inactive"}
{"compound": "CCN=C(S)Nc1cc(OC)c(NC(=O)c2ccco2)cc1OC", "assigned-category": "inactive"}

**Query** Give the logged outcome of this assay for the following compound: CCCNc1ccc(C(=O)OCC)cc1[N+](=O)[O-]
**Result** inactive

All values here come from ChEMBL document CHEMBL1201862.
